Kindly state GI50 for each of the entries shown.
- Test system: DU145 (human prostate cancer cells)

Challenge: Identify the reported GI50 for the following entry. "C/C=C1\NC(=O)c2csc(n2)CNC(=O)C[C@@H](/C=C/CCSC(=O)CCCCCCC)OC(=O)CNC1=O"
Response given: 8 nM

Challenge: Identify the reported GI50 for the following entry. "C/C=C1\NC(=O)c2csc(n2)[C@H](C(C)C)NC(=O)C[C@@H](/C=C/CCSC(=O)CCCCCCC)OC(=O)[C@H](C(C)C)NC1=O"
Response given: 1650 nM

Challenge: Identify the reported GI50 for the following entry. C/C=C1\NC(=O)C2N=C(CNC(=O)C[C@@H](/C=C/CCSC(=O)CCCCCCC)OC(=O)[C@H](C(C)C)NC1=O)S[C@@H]2C (stereo partly drawn)
Response given: 560 nM
